These data points were gathered from patent US20240109881A1.

molecular target: IRAK4 (Homo sapiens); construct: endogenous in cells; host or cells: THP-1 cells; test: LVL THP1 HTRF (THP1 Homogeneous Time Resolved Fluorescence); type: cell-based; conditions: THP1 cells, 18 h incubation with compound, read-out: LVL THP1 HTRF EC50
Sequence (Q9NWZ3 whole entry): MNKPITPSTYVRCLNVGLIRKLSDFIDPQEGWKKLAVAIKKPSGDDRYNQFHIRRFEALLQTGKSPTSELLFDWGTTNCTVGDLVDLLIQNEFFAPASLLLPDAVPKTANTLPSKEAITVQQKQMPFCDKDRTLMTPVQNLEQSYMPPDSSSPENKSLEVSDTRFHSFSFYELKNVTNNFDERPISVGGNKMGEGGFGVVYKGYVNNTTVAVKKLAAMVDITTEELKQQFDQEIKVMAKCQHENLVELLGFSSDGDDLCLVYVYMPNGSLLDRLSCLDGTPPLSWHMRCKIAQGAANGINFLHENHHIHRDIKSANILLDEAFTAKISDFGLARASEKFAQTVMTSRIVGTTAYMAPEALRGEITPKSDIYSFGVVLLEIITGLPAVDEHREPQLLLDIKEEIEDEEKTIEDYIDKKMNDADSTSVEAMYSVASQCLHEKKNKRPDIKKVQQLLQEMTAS
Give DC50 for every item shown.
Numbers only, in nM.

Answered cases to consult:
>  <MOLECULE>
C[C@H](C#N)Nc1cc(-n2ncc3cc(C#N)cnc32)ncc1-n1cc([C@H]2CC[C@H](CCN3CC[C@H]4[C@@H]3CCN4c3ccc([C@@]4(C)CCC(=O)NC4=O)cc3)CC2)nn1 (single isomer, unassigned) [P-454]

>  <MEASURE_NAME>
DC50

>  <EXPERIMENTAL_VALUE>
13.6

$$$$
>  <MOLECULE>
C[C@H](C#N)Nc1cc(-n2ncc3cc(C#N)cnc32)ncc1-c1cn([C@H]2CC[C@H](CCN3CCN(c4ccc(C5CCC(=O)NC5=O)cc4)CC3)CC2)nn1 (stereo partly shown)

>  <MEASURE_NAME>
DC50

>  <EXPERIMENTAL_VALUE>
6

$$$$
>  <MOLECULE>
C[C@H](C#N)Nc1cc(-n2ncc3cc(C#N)cnc32)ncc1-n1cc([C@H]2CC[C@H](CCN3CCN(c4ccc(N5CCC(=O)NC5=O)cc4)C[C@@H]3C)CC2)nn1

>  <MEASURE_NAME>
DC50

>  <EXPERIMENTAL_VALUE>
17.2

$$$$
>  <MOLECULE>
COc1cc(N2CCN(CC[C@H]3CC[C@H](c4cn(-c5cnc(-n6ncc7cc(C#N)cnc76)cc5N[C@H](C)C#N)nn4)CC3)CC2)ccc1N1CCC(=O)NC1=O

>  <MEASURE_NAME>
DC50

>  <EXPERIMENTAL_VALUE>
4.5

$$$$
>  <MOLECULE>
C[C@H](C#N)Nc1cc(-n2ncc3cc(C#N)c(N)nc32)ncc1-n1cc([C@H]2CC[C@H](CCN3CCN(c4ccc([C@@]5(C)CCC(=O)NC5=O)nc4)CC3)CC2)nn1 (single isomer, unassigned) [P-306]

>  <MEASURE_NAME>
DC50

>  <EXPERIMENTAL_VALUE>
3.7

$$$$

Please look at the items below and tell me DC50 for each one, in order.
1. C[C@H](C#N)Nc1cc(-n2ncc3cc(C#N)cnc32)ncc1-n1cc([C@H]2CC[C@H](CCN3CC[C@H]4[C@@H]3CCN4c3ccc([C@@]4(C)CCC(=O)NC4=O)cc3)CC2)nn1 (single isomer, unassigned) [P-462]
2. CC[C@H]1CN(CC[C@H]2CC[C@H](c3cn(-c4cnc(-n5ncc6cc(C#N)cnc65)cc4N[C@H](C)C#N)nn3)CC2)CCN1c1ccc(N2CCC(=O)NC2=O)cc1
3. C[C@H](C#N)Nc1cc(-n2ncc3cc(C#N)cnc32)ncc1-c1cnn([C@H]2CC[C@H](CCN3CCN(c4ccc(C5CCC(=O)NC5=O)cc4)CC3)CC2)c1 (stereo partly shown)
4. C[C@H](C#N)Nc1cc(-n2ncc3cc(C#N)c(N)nc32)ncc1C(=O)N[C@H]1CC[C@H](CCN2CCN(c3ccc(C4CCC(=O)NC4=O)cc3F)[C@H](C)C2)CC1 (stereo partly shown)
5. C[C@H](C#N)Nc1cc(-n2ncc3cc(C#N)cnc32)ncc1-n1cc([C@H]2CC[C@H](CCN3CCC(c4ccc(C5(O)CCC(=O)NC5=O)cc4)CC3)CC2)nn1 (stereo partly shown)

Reply:
1: 6.1; 2: 65.8; 3: 11; 4: 6; 5: 18.6
